From: patent US20160297889A1

Reported ADCC cytotoxic activity (51Cr release) on HEC-1-A values are given for each entry in this list.
TGT: T1, CAPRIN-1 protein expressed on the membrane surface of human cancer cells (human, UniProt Q14444 2-709)
T1 sequence (looked up): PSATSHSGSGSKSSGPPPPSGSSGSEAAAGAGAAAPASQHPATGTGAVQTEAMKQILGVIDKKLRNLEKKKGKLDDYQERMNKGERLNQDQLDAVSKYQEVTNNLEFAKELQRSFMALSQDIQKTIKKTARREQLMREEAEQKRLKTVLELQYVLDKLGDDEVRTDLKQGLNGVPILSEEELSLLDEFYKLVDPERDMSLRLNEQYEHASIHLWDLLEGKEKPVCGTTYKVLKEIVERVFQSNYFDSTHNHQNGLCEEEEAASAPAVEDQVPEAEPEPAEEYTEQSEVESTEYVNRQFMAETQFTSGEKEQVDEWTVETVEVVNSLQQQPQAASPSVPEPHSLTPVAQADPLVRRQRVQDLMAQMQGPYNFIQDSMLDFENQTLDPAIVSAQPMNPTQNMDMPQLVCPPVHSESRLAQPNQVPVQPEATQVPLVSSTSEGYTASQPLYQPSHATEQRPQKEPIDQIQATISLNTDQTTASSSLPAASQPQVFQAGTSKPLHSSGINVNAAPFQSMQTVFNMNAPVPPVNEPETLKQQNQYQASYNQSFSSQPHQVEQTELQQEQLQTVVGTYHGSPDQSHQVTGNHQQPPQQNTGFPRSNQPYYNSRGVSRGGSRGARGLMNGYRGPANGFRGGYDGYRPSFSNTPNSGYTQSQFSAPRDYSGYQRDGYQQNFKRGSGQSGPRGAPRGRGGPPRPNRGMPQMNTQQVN
ASSAY_INFO: cell-based or functional assay
EXPERIMENTAL_READOUT: ADCC cytotoxic activity (51Cr release) on HEC-1-A

[
  {
    "BINDER": "humanized antibody #9 (antibody, V domains shown) VH: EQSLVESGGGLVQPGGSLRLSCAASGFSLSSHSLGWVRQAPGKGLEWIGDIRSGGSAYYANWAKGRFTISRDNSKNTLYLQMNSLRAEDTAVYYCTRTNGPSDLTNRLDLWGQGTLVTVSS VL: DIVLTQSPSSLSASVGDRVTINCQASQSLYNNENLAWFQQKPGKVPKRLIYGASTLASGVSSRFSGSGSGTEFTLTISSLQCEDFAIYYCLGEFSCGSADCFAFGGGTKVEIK",
    "REPORTED_VALUE": "≥ 40%"
  },
  {
    "BINDER": "humanized antibody #0 (antibody, V domains shown) VH: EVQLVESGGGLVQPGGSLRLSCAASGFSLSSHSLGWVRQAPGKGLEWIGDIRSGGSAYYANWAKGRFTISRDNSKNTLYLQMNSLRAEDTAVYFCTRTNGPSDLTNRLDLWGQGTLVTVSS VL: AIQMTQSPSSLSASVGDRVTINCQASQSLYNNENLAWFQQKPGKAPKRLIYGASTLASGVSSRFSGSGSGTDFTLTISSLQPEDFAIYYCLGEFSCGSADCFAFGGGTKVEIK",
    "REPORTED_VALUE": "≥ 40%"
  },
  {
    "BINDER": "humanized antibody #6 (antibody, V domains shown) VH: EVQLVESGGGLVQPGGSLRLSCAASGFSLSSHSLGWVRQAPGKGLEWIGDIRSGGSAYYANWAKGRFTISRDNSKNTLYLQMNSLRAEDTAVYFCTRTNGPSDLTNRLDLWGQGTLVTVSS VL: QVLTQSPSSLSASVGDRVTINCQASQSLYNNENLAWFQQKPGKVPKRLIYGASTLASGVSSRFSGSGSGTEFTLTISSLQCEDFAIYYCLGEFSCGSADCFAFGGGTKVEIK",
    "REPORTED_VALUE": "≥ 52%"
  }
]
